- method_summary: Circular dichroism helicity determination
- Format: physicochemical
- measurement_setup: percent helicity; peptide-micelle complexes, Ri=100, 37° C.
No end group written: not given here.
metric_name: He (%) mics

[[record]]
polymer_sequence = "PVLELFENLWERLLDALQKKLK [peptide 149]"
measurement_unit = "%"
experimental_value = 54


(I) PVLDEFREKLNERLEALKQKLK [peptide 109, reference compound]
(II) PVLELFENLLERLGDALQKKLK [peptide 148]
INPUT: Form field 'greater He (%) mics' accepts I or II ; which applies? Your choice should be expressed through its label.
OUTPUT: II

* * *

- method_summary: Circular dichroism helicity determination
- Format: physicochemical
- measurement_setup: percent helicity; free, unbound peptide 5 μM in 5 mM phosphate buffer, pH 7.4, 37° C.
No end group written: not given here.
metric_name: He (%) free

[[record]]
substance = "PVLDEFREKLNERLEALKQKLK [peptide 109, reference compound]"
metric_name = "He (%) free"
experimental_value = 19

[[record]]
substance = "Ac-EWLKAFYEKVLEKLKELF-NH2 [peptide 238, reference compound]"
metric_name = "He (%) free"
experimental_value = 49

[[record]]
substance = "PVLDAFRELLEALAQLKK [compound 223]"
metric_name = "He (%) free"
experimental_value = 21

[[record]]
substance = "GVLELFENLLERLLDALQKKLK [peptide 145]"
metric_name = "He (%) free"
experimental_value = 55


(1) PVLDLFKELLNELLEALKQKLK [peptide 7]
(2) DWFKAFYDKVAEKFKEAF [peptide 243, reference compound]
(3) PVLDLFRELLNELLEALKQ [compound 60]
INPUT: Let's sort these by He (%) free, smallest first. Go ahead? // ordering of labels required in reply
OUTPUT: 2, 3, 1

(I) PVLDLFREWLNELLEALKQKLK [compound 37]
(II) PLFRELLNELLEALKQKLK [compound 55]
INPUT: Form field 'greater He (%) free' accepts I or II ; which applies? Your choice should be expressed through its label.
OUTPUT: I
(I: 65%, II: 38%)
